- Subject Of Test: Cyclin-dependent kinase 5/CDK5 activator 1 (Homo sapiens) (UniProt Q00535+Q15078)
- Sequence (Q00535 whole entry): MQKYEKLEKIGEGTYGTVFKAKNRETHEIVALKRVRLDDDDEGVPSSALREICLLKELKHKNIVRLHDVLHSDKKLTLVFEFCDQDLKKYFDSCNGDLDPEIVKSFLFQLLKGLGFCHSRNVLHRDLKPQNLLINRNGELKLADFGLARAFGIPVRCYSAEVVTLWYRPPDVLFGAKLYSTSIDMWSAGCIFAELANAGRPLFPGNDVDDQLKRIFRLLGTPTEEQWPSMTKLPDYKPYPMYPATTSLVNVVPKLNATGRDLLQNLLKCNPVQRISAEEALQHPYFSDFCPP
- Sequence (Q15078 99-307 partner limits assumed): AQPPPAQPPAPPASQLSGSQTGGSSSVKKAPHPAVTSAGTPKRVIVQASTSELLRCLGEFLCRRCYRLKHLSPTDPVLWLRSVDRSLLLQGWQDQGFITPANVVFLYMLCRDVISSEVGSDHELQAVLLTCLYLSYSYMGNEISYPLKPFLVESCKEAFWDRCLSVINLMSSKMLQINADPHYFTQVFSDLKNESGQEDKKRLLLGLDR
- Assay Remarks: Inhibition of recombinant human CDK5/p25 extracted from bacteria using histone H1 as substrate assessed as enzyme residual activity at 10 uM incubated for 30 mins in presence of ATP by ADP-Glo kinase assay relative to control
- Assay type: protein-complex assay
This listing pairs molecules with measured Activity.

• c1cncc(-c2c[nH]c3cc4cnccc4cc23)c1 = 57%
• Cn1cc(-c2cccnc2)c2cc3ccncc3cc21 = 75%
• O=C1CCC(N2C(=O)c3cccc(NCCOCCOCCOCCn4cc(-c5ccncc5)c5cc6ccncc6cc54)c3C2=O)C(=O)N1 (stereo unspecified) = 100%

query: Report measured Activity; entry is c1ccc(-c2c[nH]c3cc4cnccc4cc23)nc1
result: 35%

query: For the molecule c1cc2c(ccc3cc[nH]c32)cn1 , give its reported Activity.
result: 63%

query: State its Activity: c1cc2cc3c(cc2cn1)NCC3
result: 88%

====

In this section, each of the molecules is paired with its reported Activity.
- Subject Of Test: Cyclin-dependent kinase 5/CDK5 activator 1 (Homo sapiens) (UniProt Q00535+Q15078)
- Assay Remarks: Inhibition of recombinant human CDK5/p25 extracted from bacteria using histone H1 as substrate assessed as enzyme residual activity at 1 uM incubated for 30 mins in presence of ATP by ADP-Glo kinase assay relative to control
- Assay type: protein-complex assay
The reply should contain only the number, in %.

Solved entries:
- c1cc2c(ccc3cc[nH]c32)cn1: 77
- Cn1cc(-c2cccnc2)c2cc3ccncc3cc21: 79
- O=C1CCC(N2C(=O)c3cccc(NCCOCCOCCOCCn4cc(-c5ccncc5)c5cc6ccncc6cc54)c3C2=O)C(=O)N1 (stereo not given): 100
- Cn1cc(-c2ccccn2)c2cc3ccncc3cc21: 100

Now for another entry.
query: Under Cyclin-dependent kinase 5/CDK5 activator 1 (Homo sapiens) (UniProt Q00535+Q15078): report Activity of O=C1CCC(N2C(=O)c3cccc(NCCOCCOCCOCCNC(=O)c4c[nH]c5cc6cnccc6cc45)c3C2=O)C(=O)N1 (stereo not given) .
result: 100

====

Measured IC50 values are reported for all entries that follow.
- Subject Of Test: Serine/threonine-protein kinase haspin (Homo sapiens, UniProt Q8TF76)
- Sequence (Q8TF76 whole entry, the tested form may be a part): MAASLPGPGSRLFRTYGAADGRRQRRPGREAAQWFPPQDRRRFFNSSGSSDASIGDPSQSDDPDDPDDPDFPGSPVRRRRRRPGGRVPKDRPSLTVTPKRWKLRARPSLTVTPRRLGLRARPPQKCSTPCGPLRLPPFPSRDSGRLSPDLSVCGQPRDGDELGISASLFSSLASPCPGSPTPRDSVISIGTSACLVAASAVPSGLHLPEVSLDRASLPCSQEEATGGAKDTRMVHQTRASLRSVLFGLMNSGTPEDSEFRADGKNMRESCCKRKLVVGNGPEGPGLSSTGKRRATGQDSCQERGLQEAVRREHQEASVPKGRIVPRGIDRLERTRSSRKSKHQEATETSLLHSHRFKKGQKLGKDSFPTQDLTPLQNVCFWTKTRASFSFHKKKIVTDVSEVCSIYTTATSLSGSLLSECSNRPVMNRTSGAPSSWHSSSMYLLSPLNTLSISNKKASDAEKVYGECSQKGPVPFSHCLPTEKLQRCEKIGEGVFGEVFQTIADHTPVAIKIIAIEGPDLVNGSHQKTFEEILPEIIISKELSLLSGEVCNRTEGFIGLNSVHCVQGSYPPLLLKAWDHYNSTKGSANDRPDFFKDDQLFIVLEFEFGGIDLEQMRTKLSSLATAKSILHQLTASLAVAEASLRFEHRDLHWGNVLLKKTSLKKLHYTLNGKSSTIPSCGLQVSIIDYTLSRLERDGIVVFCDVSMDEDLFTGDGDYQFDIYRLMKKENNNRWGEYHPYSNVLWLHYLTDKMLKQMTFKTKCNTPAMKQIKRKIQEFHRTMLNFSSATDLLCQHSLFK
- Assay Remarks: Inhibition of recombinant human haspin kinase domain (470 to 798 residues) extracted from bacteria using histone H3 (1 to 21) peptide as substrate incubated for 30 mins in presence of ATP by ADP-Glo kinase assay
Please state the figure in nM; there is no need to write the unit.

• c1ccc(-c2c[nH]c3cc4cnccc4cc23)nc1 = 84.4
• c1cc2c(ccc3cc[nH]c32)cn1 = 258

query: Give IC50 for this entry on Serine/threonine-protein kinase haspin (Homo sapiens, UniProt Q8TF76): Cn1cc(-c2ccccn2)c2cc3ccncc3cc21
result: 173

query: Please indicate recorded IC50 of c1cncc(-c2c[nH]c3cc4cnccc4cc23)c1 measured with Serine/threonine-protein kinase haspin (Homo sapiens, UniProt Q8TF76).
result: 30.6

query: Please report the measured IC50 for Cn1cc(-c2ccncc2)c2cc3ccncc3cc21 tested on Serine/threonine-protein kinase haspin (Homo sapiens, UniProt Q8TF76).
result: 23.6

query: Tell me IC50 of Cn1cc(-c2cccnc2)c2cc3ccncc3cc21 when tested on Serine/threonine-protein kinase haspin (Homo sapiens, UniProt Q8TF76).
result: 31.7
